test: Acute toxicity, single intravenous injection, LD50 (Bliss method) in Kunming mice; type: in vivo; conditions: both sexes, Kunming, mouse, in vivo, iv, 50% male, 50% female Kunming mice, single intravenous injection; confidence limits; read-out: LD50 (95% CL)
readoutKind: LD50 at 2 weeks

**Query** Need LD50 at 2 weeks of Fc1ccc(CSSSCc2ccc(F)cc2)cc1 [ACEA100108, Di(p-fluorobenzyl)trisulfide] , thanks.
**Result** 284 to 351 mg/kg

---

Measured IC50, listed per entry for reference.
test system: MCF7 (human breast cancer cell line); assay: RT-CES system cell proliferation/cytotoxicity IC50, MCF7; type: cell-based; settings: time point of maximum inhibition
Response body: numeric value in µM, unit text excluded.

These solved cases illustrate the format of a correct answer.
{"compound": "Clc1ccc(CSSSCc2ccc(Cl)cc2)cc1 [ACEA100118, Di(p-chlorobenzyl)trisulfide]", "IC50 (µM)": 4.4}
{"compound": "c1ccc(CSSSCc2ccccc2)cc1 [DBTS, Dibenzyl trisulfide]", "IC50 (µM)": 6.6}
{"compound": "Clc1ccccc1CSSSCc1ccccc1Cl [ACEA100115, Di(o-chlorobenzyl)trisulfide]", "IC50 (µM)": 7.8}

**Query** Need IC50 of Cc1cccc(CSSSCc2cccc(C)c2)c1 [ACEA100116, di(m-methylbenzyl)trisulfide] , thanks.
**Result** 2.75

**Query** Cool, now FC(F)(F)c1cccc(CSSSCc2cccc(C(F)(F)F)c2)c1 [ACEA100117, Di(m-trifluoromethylbenzyl)trisulfide]
**Result** 48.8

**Query** Cool, now Fc1ccc(CSSSCc2ccc(F)cc2)cc1 [ACEA100108, Di(p-fluorobenzyl)trisulfide]
**Result** 2.15

---

test: Acute toxicity, single intravenous injection, LD50 (Bliss method) in Kunming mice; format: in vivo; settings: both sexes, Kunming, mouse, in vivo, iv, Kunming mice, 50% male 50% female, Bliss method; read-out: mouse single i.v. dose LD50, interval in parentheses
Measured LD50 at 2 weeks, listed per entry for reference.

{"molecule": "Fc1ccc(CSSSCc2ccc(F)cc2)cc1 [ACEA100108, Di(p-fluorobenzyl)trisulfide]", "LD50 at 2 weeks": "284 to 351 mg/kg"}

Now take the following molecule into account.
**Query** Need LD50 at 2 weeks of c1ccc(CSSSCc2ccccc2)cc1 [DBTS, Dibenzyl trisulfide] , thanks.
**Result** 235 to 284 mg/kg

---

assay: Acute toxicity, single intravenous injection, LD50 (Bliss method) in Kunming mice; format: in vivo; conditions: male, Kunming, mouse, in vivo, iv, male Kunming mice, single i.v.; read-out: LD50 (95% CL)
readoutKind: LD50 at 2 weeks

**Query** Need LD50 at 2 weeks of c1ccc(CSSSCc2ccccc2)cc1 [DBTS, Dibenzyl trisulfide] , thanks.
**Result** 230 to 296 mg/kg

---

system: Jurkat (human T cell leukemia cell line); experiment: MTT assay IC50 (48 h), Jurkat; format: cell-based
readoutKind: pIC50
Note on pIC50: it is the negative log10 of concentration, concentration in mol/L.

These solved cases illustrate the format of a correct answer.
{"molecule": "Clc1ccccc1CSSSCc1ccccc1Cl [ACEA100115, Di(o-chlorobenzyl)trisulfide]", "targetEntity": "Jurkat (human T cell leukemia cell line)", "pIC50": 6.29}
{"molecule": "FC(F)(F)c1cccc(CSSSCc2cccc(C(F)(F)F)c2)c1 [ACEA100117, Di(m-trifluoromethylbenzyl)trisulfide]", "targetEntity": "Jurkat (human T cell leukemia cell line)", "pIC50": 5.10}
{"molecule": "Cc1cccc(CSSSCc2cccc(C)c2)c1 [ACEA100116, di(m-methylbenzyl)trisulfide]", "targetEntity": "Jurkat (human T cell leukemia cell line)", "pIC50": 6.52}
{"molecule": "Clc1ccc(CSSSCc2ccc(Cl)cc2)cc1 [ACEA100118, Di(p-chlorobenzyl)trisulfide]", "targetEntity": "Jurkat (human T cell leukemia cell line)", "pIC50": 6.30}
{"molecule": "Fc1ccc(CSSSCc2ccc(F)cc2)cc1 [ACEA100108, Di(p-fluorobenzyl)trisulfide]", "targetEntity": "Jurkat (human T cell leukemia cell line)", "pIC50": 6.46}

Now take the following molecule into account.
**Query** Need pIC50 of c1ccc(CSSSCc2ccccc2)cc1 [DBTS, Dibenzyl trisulfide] , thanks.
**Result** 6.46
